target: NAD-dependent protein deacylase sirtuin-5, mitochondrial (Homo sapiens, UniProt Q9NXA8)
Sequence (Q9NXA8 whole entry): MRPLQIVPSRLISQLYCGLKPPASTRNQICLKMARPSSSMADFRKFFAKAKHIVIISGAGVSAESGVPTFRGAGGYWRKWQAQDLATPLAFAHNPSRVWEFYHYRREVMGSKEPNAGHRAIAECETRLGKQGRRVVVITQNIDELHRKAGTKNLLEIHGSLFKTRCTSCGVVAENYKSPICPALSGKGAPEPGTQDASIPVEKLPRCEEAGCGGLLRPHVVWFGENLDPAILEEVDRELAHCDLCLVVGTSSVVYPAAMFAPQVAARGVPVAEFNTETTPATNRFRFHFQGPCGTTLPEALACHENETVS
propertyName: IC50 (µM)

a: CCOC(=O)c1cnc(Nc2cccc(C)c2)nc1NCCCNC(=S)NCCC(=O)O
b: O=C(O)CCNC(=S)NCCCNc1nc(Nc2ccccc2Cl)ncc1C(=O)NC1CC1
c: CC(C)(C)OC(=O)[C@H](NC(=O)c1cnc(Nc2ccccc2Cl)nc1NCCCNC(=S)NCCC(=O)O)c1ccccc1
d: Cc1ccccc1NC(=O)c1cnc(Nc2ccccc2Cl)nc1NCCCNC(=S)NCCC(=O)O
Take the compounds listed above and rank them by IC50; the top slot goes to the highest value. Please reply with the labels ordered as requested. Many thanks.
a, b, d, c
(a: 16.9 µM, b: 9.56 µM, d: 5.45 µM, c: 1.82 µM)

* * *

Consider the following IC50 values measured on NAD-dependent protein deacylase sirtuin-5, mitochondrial (Homo sapiens).
propertyName: IC50 (µM)

Reference set (2 entries):
[[record]]
compound = "O=C(O)CCNC(=S)NCCCNc1nc(Nc2ccccc2Cl)ncc1C(=O)N1CC[C@H](c2ccccc2)C1"
propertyname = "IC50"
assayvalue = 0.31

[[record]]
compound = "CCOC(=O)c1cnc(Nc2ccc(F)cc2)nc1NCCCNC(=S)NCCC(=O)O"
propertyname = "IC50"
assayvalue = 7.54


I: O=C(O)CCNC(=S)NCCCNc1nc(Nc2ccccc2Cl)ncc1C(=O)N1CCC(c2ccccc2)C1 (centres undefined)
II: CCOC(=O)c1cnc(Nc2cc(OC)cc(OC)c2)nc1NCCCNC(=S)NCCC(=O)O
III: CCOC(=O)c1cnc(Nc2cccc(OC)c2)nc1NCCCNC(=S)NCCC(=O)O
IV: CCOC(=O)c1cnc(Nc2ccccc2Br)nc1NCCCNC(=S)NCCC(=O)O
Hey, quick one: sort these by IC50, largest value first please. Please reply with the labels ordered as requested. Many thanks.
III, II, IV, I
(III: 17.1 µM, II: 6.9 µM, IV: 4.06 µM, I: 0.53 µM)

* * *

Consider the following IC50 values measured on NAD-dependent protein deacylase sirtuin-5, mitochondrial (Homo sapiens, UniProt Q9NXA8).
propertyName: IC50 (nM)

Reference set (5 entries):
[[record]]
compound = "CCOC(=O)c1cnc(Nc2cccc(F)c2Cl)nc1NCCCNC(=S)NCCC(=O)O"
assayvalue = 2390

[[record]]
compound = "O=C(O)CCNC(=S)NCCCNc1nc(Nc2ccccc2Cl)ncc1C(=O)NC1(c2ccccc2)CC1"
assayvalue = 2800

[[record]]
compound = "CCOC(=O)c1cnc(Nc2cccc(F)c2C)nc1NCCCNC(=S)NCCC(=O)O"
assayvalue = 2380

[[record]]
compound = "CCOC(=O)c1cnc(Nc2ccccc2Cl)nc1NCCCNC(=S)NCCC(=O)O"
assayvalue = 1900

[[record]]
compound = "COC(=O)c1cnc(Nc2ccccc2Cl)nc1NCCCNC(=S)NCCC(=O)O"
assayvalue = 3340


I: C[C@@H](NC(=O)c1cnc(Nc2ccccc2Cl)nc1NCCCNC(=S)NCCC(=O)O)c1ccccc1
II: O=C(O)CCNC(=S)NCCCNc1nc(Nc2ccccc2Cl)ncc1C(=O)N1CCCC(c2ccccc2)C1 (centres undefined)
Of the two listed items, I and II , which carries the larger IC50 figure? Use the label to indicate which entry you chose.
II

P: O=C(O)CCNC(=S)NCCCNc1nc(Nc2ccccc2Cl)ncc1C(=O)N[C@@H]1C[C@H]1c1ccc(F)c(F)c1
Q: CC(C)OC(=O)c1cnc(Nc2ccccc2Cl)nc1NCCCNC(=S)NCCC(=O)O
Of P and Q , which carries the smaller reported IC50 figure? Use the label to indicate which entry you chose.
P
(P: 1240 nM, Q: 2770 nM)

A: CC[C@H](NC(=O)c1cnc(Nc2ccccc2Cl)nc1NCCCNC(=S)NCCC(=O)O)c1ccccc1
B: CC(C)CNC(=O)c1cnc(Nc2ccccc2Cl)nc1NCCCNC(=S)NCCC(=O)O
C: CCOC(=O)c1cnc(Nc2cccc(C)c2Br)nc1NCCCNC(=S)NCCC(=O)O
Please produce an ascending ranking of these compounds based on IC50. Please reply with the labels ordered as requested. Many thanks.
C, A, B

P: CC(C)c1ccccc1NC(=O)c1cnc(Nc2ccccc2Cl)nc1NCCCNC(=S)NCCC(=O)O
Q: O=C(O)CCNC(=S)NCCCNc1nc(Nc2ccccc2Cl)ncc1C(=O)N1CCOCC1
Of P and Q , which carries the smaller reported IC50 figure? Use the label to indicate which entry you chose.
P
